This collection of values is drawn from ChEMBL document CHEMBL1201862.

# System: HOP-92
# measurement protocol: NCI tumour cell line growth inhibition, 48 h
Active and inactive are the calls of the source. Rule as the data show it: active = GI50 up to about 1.1 µM and inactive = higher.
measured attribute: GI50

// solved cases for GI50 follow
{"columns": ["molecule", "result"],
 "data": [
  ["CCN(CC)C(=O)C/C(C)=N/NC(=O)c1ccncc1", "> 100 µM (inactive)"],
  ["CC1=C2C(O)C(C(C)CO)C(O)CC2(C)C(O)CC1 (stereo not given)", "> 100 µM (inactive)"],
  ["CC(C)OP(=O)(OC(C)C)C(Nc1cccc(C(F)(F)F)c1)c1ccccc1 (stereo not given)", "17.1 µM (inactive)"],
  ["COc1cc(C2c3cc(O)c(OC)cc3C3OCC2C3CO)ccc1O (stereo not given)", "7.6 µM (inactive)"],
  ["Cc1cccc(C)c1NC(=O)CCCC(=O)C(C#N)c1ccccc1 (stereo not given)", "> 100 µM (inactive)"]
]}

[in] Reported GI50 for O=C(CSc1nnc[nH]1)C[P+](c1ccccc1)(c1ccccc1)c1ccccc1 : what is it?
[out] 22.9 µM (inactive)

[in] Reported GI50 for CC1=C(c2cc(C(=O)Nc3ccc(Cl)c(Cl)c3)nc(N)n2)Sc2ccccc2N1 : what is it?
[out] > 100 µM (inactive)

[in] Reported GI50 for Cc1ccc(-n2cc([Si](C)(C)C)nn2)s1 : what is it?
[out] > 100 µM (inactive)

[in] Reported GI50 for Cn1sc2ccccc2c1=S : what is it?
[out] 16.6 µM (inactive)

[in] Reported GI50 for CCCCCCCCCCCCCCCCC1=CC(=O)C=C(OC)C1=O : what is it?
[out] 56.8 µM (inactive)

[in] Reported GI50 for CC(C)Cn1cnc2c(Sc3c([N+](=O)[O-])ncn3C)nc(N)nc21 : what is it?
[out] 14.9 µM (inactive)

[in] Reported GI50 for CNC(=O)Nn1c(SC)nc2ccccc21 : what is it?
[out] > 100 µM (inactive)

[in] Reported GI50 for CCOC(=O)c1c(-c2ccc(O)c(OC)c2)c(C#N)c(=S)n(C2OC(CO)C(O)C(O)C2O)c1-c1ccccc1 (stereo not given) : what is it?
[out] 66.7 µM (inactive)

[in] Reported GI50 for O=C(CSC1=NCCN1)c1ccccc1 : what is it?
[out] > 100 µM (inactive)

[in] Reported GI50 for N#Cc1ccccc1NC(=O)C(O)C(O)C(O)C(O)C=O (stereo not given) : what is it?
[out] > 100 µM (inactive)

* * *

# Test system: SK-MEL-28
# measurement protocol: NCI tumour cell line growth inhibition, 48 h
Activity calls are given as the source filed them. Rule as the data show it: active = GI50 up to about 1.1 µM and inactive = higher.
measured attribute: GI50

{"columns": ["compound", "result"],
 "data": [
  ["C/C=C/CP(=O)(c1ccccc1)c1ccccc1", "> 100 µM (inactive)"],
  ["CCOC(=O)/C(=C/c1ccccn1)C(=O)c1ccccc1", "11.8 µM (inactive)"],
  ["C/C=C(/C)C(=O)O[C@@H]1c2c(C)coc2C[C@H]2CC[C@H](O)[C@H](C)[C@]21C", "44.8 µM (inactive)"],
  ["COc1c(O)c2c3c(cc(C)cc3c1C(C)C)OC2", "> 100 µM (inactive)"]
]}

[in] Reported GI50 for O=C1NC2c3c(I)sc(I)c3/C(=N\O)C2O1 (centres undefined) : what is it?
[out] 41.8 µM (inactive)

[in] Reported GI50 for CN(C)CC(CN(C)C)c1ccccn1 : what is it?
[out] > 100 µM (inactive)

[in] Reported GI50 for OC(C1CCC=NN1C(O)(C(F)(F)F)C(F)(F)F)(C(F)(F)F)C(F)(F)F (centres undefined) : what is it?
[out] > 10 µM (inactive)

[in] Reported GI50 for O=C1CCC2(CC1CC(Sc1ccccc1)Sc1ccccc1)OCCO2 (centres undefined) : what is it?
[out] 85.9 µM (inactive)

[in] Reported GI50 for OCCOc1ccccc2cccc1-2 : what is it?
[out] > 100 µM (inactive)
